Assign MC4R cAMP EC50 to each entry below.
# target-desc: human melanocortin 4 receptor (human) (UniProt P32245)
# Sequence (P32245 whole entry): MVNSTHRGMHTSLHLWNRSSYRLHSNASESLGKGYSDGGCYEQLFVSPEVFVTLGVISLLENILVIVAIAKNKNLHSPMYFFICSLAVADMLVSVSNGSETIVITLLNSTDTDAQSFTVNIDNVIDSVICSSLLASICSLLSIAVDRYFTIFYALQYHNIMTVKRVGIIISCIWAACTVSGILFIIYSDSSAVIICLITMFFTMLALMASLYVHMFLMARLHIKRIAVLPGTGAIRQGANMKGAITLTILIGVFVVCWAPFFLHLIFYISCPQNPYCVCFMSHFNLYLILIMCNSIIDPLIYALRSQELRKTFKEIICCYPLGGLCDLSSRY
# assay-details: cell-based or functional assay
Positions of bridges follow the written chain, without caps; N, C: chain ends. Non-standard residues stand in square brackets, D forms with d. Dab = NCC[C@H](N)C(=O)O; Aib = CC(C)(N)C(=O)O
Unit nM implied. Number only.

Quick one: give measured MC4R cAMP EC50 for cyclo(C[Aib]H[dF][Dab]WC[Aib]H[dF][Dab]W) (disulfide 1-7; SMILES CC1(C)NC(=O)[C@@H]2CSSC[C@H](NC(=O)[C@H](Cc3c[nH]c4ccccc34)NC(=O)[C@H](CCN)NC(=O)[C@@H](Cc3ccccc3)NC(=O)[C@H](Cc3c[nH]cn3)NC1=O)C(=O)NC(C)(C)C(=O)N[C@@H](Cc1c[nH]cn1)C(=O)N[C@H](Cc1ccccc1)C(=O)N[C@@H](CCN)C(=O)N[C@@H](Cc1c[nH]c3ccccc13)C(=O)N2) [Chem. 46]
5.65

Quick one: give measured MC4R cAMP EC50 for CXHFXWCXHFXW (Aib 2, 8; D-Phe 4, 10; AGP 5, 11; disulphide Cys1-Cys7; head-to-tail amide Cys1-Trp12) [Chem. 43]
0.44

Quick one: give measured MC4R cAMP EC50 for cyclo(C[dP]H[dF]RWC[dP]H[dF]RW) (disulfide 1-7; SMILES N=C(N)NCCC[C@@H]1NC(=O)[C@@H](Cc2ccccc2)NC(=O)[C@H](Cc2c[nH]cn2)NC(=O)[C@H]2CCCN2C(=O)[C@@H]2CSSC[C@H](NC(=O)[C@H](Cc3c[nH]c4ccccc34)NC1=O)C(=O)N1CCC[C@@H]1C(=O)N[C@@H](Cc1c[nH]cn1)C(=O)N[C@H](Cc1ccccc1)C(=O)N[C@@H](CCCNC(=N)N)C(=O)N[C@@H](Cc1c[nH]c3ccccc13)C(=O)N2) [Chem. 33]
19.8

Hello, the source for this data is patent US20200223889A1, in case you need it.
